Source listed as ChEMBL document CHEMBL1806360.

Property: zone of inhibition at 100 µg/mL; scope: individual compounds
system: Staphylococcus aureus; assay: Antibacterial activity against Staphylococcus aureus assessed as zone of inhibition at 100 ug/ml by agar plate method; type: functional; settings: read-out: IZ
Return type: number; implicit unit mm.

Before answering, review these 5 worked examples.
Under Staphylococcus aureus: zone of inhibition at 100 µg/mL value of COC(=O)[C@@H]1CCCN1C(=O)C1=C(C)NC(=S)NC1c1cccc(OC/C=C\COc2cccc(C3NC(=S)NC(C)=C3C(=O)N3CCC[C@H]3C(=O)OC)c2)c1 (stereo partly drawn) ? 15

Under Staphylococcus aureus: zone of inhibition at 100 µg/mL value of CCOC(=O)C1=C(C)NC(=S)NC1c1cccc(OC/C=C/COc2cccc(C3NC(=S)NC(C)=C3C(=O)OCC)c2)c1 (stereo not drawn) ? 8

Under Staphylococcus aureus: zone of inhibition at 100 µg/mL value of O=C(O)c1cn(C2CC2)c2cc(N3CCNCC3)c(F)cc2c1=O ? 25

Under Staphylococcus aureus: zone of inhibition at 100 µg/mL value of CCOC(=O)C1=C(C)NC(=S)NC1c1ccc(OCCCCOc2ccc(C3NC(=S)NC(C)=C3C(=O)OCC)cc2OC)c(OC)c1 (stereo not drawn) ? 9

Under Staphylococcus aureus: zone of inhibition at 100 µg/mL value of CCOC(=O)C1=C(C)NC(=S)NC1c1cccc(OCCCOc2cccc(C3NC(=S)NC(C)=C3C(=O)OCC)c2)c1 (stereo not drawn) ? 10

More entries:
Under Staphylococcus aureus: zone of inhibition at 100 µg/mL value of CCOC(=O)C1=C(C)NC(=S)NC1c1ccc(OC/C=C\COc2ccc(C3NC(=S)NC(C)=C3C(=O)OCC)cc2OC)c(OC)c1 (stereo not drawn) ? 12

Under Staphylococcus aureus: zone of inhibition at 100 µg/mL value of CCOC(=O)C1=C(C)NC(=S)NC1c1cccc(OC/C=C\COc2cccc(C3NC(=S)NC(C)=C3C(=O)OCC)c2)c1 (stereo not drawn) ? 15

Under Staphylococcus aureus: zone of inhibition at 100 µg/mL value of CCOC(=O)C1=C(C)NC(=S)NC1c1ccc(OCCCCCOc2ccc(C3NC(=S)NC(C)=C3C(=O)OCC)cc2OC)c(OC)c1 (stereo not drawn) ? 19

###

tested on: Staphylococcus epidermidis; assay: Antibacterial activity against Staphylococcus epidermidis assessed as zone of inhibition at 100 ug/ml by agar plate method; type: functional; settings: read-out: IZ
Property: zone of inhibition at 100 µg/mL; scope: individual compounds
Return type: number; implicit unit mm.

Before answering, review these 7 worked examples.
Tell me the measured zone of inhibition at 100 µg/mL of CCOC(=O)C1=C(C)NC(=S)NC1c1ccc(OCCCCOc2ccc(C3NC(=S)NC(C)=C3C(=O)OCC)cc2OC)c(OC)c1 (stereo not drawn) , please. 12

Tell me the measured zone of inhibition at 100 µg/mL of CCOC(=O)C1=C(C)NC(=S)NC1c1ccc(OCCCCCOc2ccc(C3NC(=S)NC(C)=C3C(=O)OCC)cc2OC)c(OC)c1 (stereo not drawn) , please. 10

Tell me the measured zone of inhibition at 100 µg/mL of COC(=O)[C@@H]1CCCN1C(=O)C1=C(C)NC(=S)NC1c1cccc(OC/C=C\COc2cccc(C3NC(=S)NC(C)=C3C(=O)N3CCC[C@H]3C(=O)OC)c2)c1 (stereo partly drawn) , please. 17

Tell me the measured zone of inhibition at 100 µg/mL of CCOC(=O)C1=C(C)NC(=S)NC1c1cccc(OC/C=C\COc2cccc(C3NC(=S)NC(C)=C3C(=O)OCC)c2)c1 (stereo not drawn) , please. 12

Tell me the measured zone of inhibition at 100 µg/mL of CCOC(=O)C1=C(C)NC(=S)NC1c1ccc(OC/C=C\COc2ccc(C3NC(=S)NC(C)=C3C(=O)OCC)cc2OC)c(OC)c1 (stereo not drawn) , please. 18

Tell me the measured zone of inhibition at 100 µg/mL of CCOC(=O)C1=C(C)NC(=S)NC1c1cccc(OCCCOc2cccc(C3NC(=S)NC(C)=C3C(=O)OCC)c2)c1 (stereo not drawn) , please. 15

Tell me the measured zone of inhibition at 100 µg/mL of O=C(O)c1cn(C2CC2)c2cc(N3CCNCC3)c(F)cc2c1=O [CIPROFLOXACIN] , please. 35

Could you now consider this next compound?
Tell me the measured zone of inhibition at 100 µg/mL of CCOC(=O)C1=C(C)NC(=S)NC1c1cccc(OC/C=C/COc2cccc(C3NC(=S)NC(C)=C3C(=O)OCC)c2)c1 (stereo not drawn) , please. 18

###

Property: ΔTm; scope: individual compounds
tested on: Nucleic Acid; assay: Binding affinity to calf thymus DNA assessed as change in melting temperature at compound to DNA ratio of 1:5 after 18 hrs at pH 7; assay type: nucleic-acid assay; conditions: Bos taurus
Return type: number; implicit unit °C.

Tell me the measured ΔTm of COC(=O)[C@@H]1CCCN1C(=O)C1=C(C)NC(=S)NC1c1cccc(OC/C=C\COc2cccc(C3NC(=S)NC(C)=C3C(=O)N3CCC[C@H]3C(=O)OC)c2)c1 (stereo partly drawn) , please. 3.1

Tell me the measured ΔTm of CCOC(=O)C1=C(C)NC(=S)NC1c1cccc(O)c1 (stereo not drawn) , please. 0

Tell me the measured ΔTm of CCOC(=O)C1=C(C)NC(=S)NC1c1cccc(OCCCOc2cccc(C3NC(=S)NC(C)=C3C(=O)OCC)c2)c1 (stereo not drawn) , please. 0.1

Tell me the measured ΔTm of CCOC(=O)C1=C(C)NC(=S)NC1c1ccc(OC/C=C/COc2ccc(C3NC(=S)NC(C)=C3C(=O)OCC)cc2OC)c(OC)c1 (stereo not drawn) , please. 3.2

Tell me the measured ΔTm of COC(=O)[C@@H]1CCCN1C(=O)C1=C(C)NC(=S)NC1c1ccc(OC/C=C/COc2ccc(C3NC(=S)NC(C)=C3C(=O)N3CCC[C@H]3C(=O)OC)cc2OC)c(OC)c1 (stereo partly drawn) , please. 2.8

Tell me the measured ΔTm of COC(=O)[C@@H]1CCCN1C(=O)C1=C(C)NC(=S)NC1c1ccc(OC/C=C\COc2ccc(C3NC(=S)NC(C)=C3C(=O)N3CCC[C@H]3C(=O)OC)cc2OC)c(OC)c1 (stereo partly drawn) , please. 4.1

Tell me the measured ΔTm of CCOC(=O)C1=C(C)NC(=S)NC1c1cccc(OC/C=C/COc2cccc(C3NC(=S)NC(C)=C3C(=O)OCC)c2)c1 (stereo not drawn) , please. 2.5

Tell me the measured ΔTm of COC(=O)[C@@H]1CCCN1C(=O)C1=C(C)NC(=S)NC1c1cccc(OC/C=C/COc2cccc(C3NC(=S)NC(C)=C3C(=O)N3CCC[C@H]3C(=O)OC)c2)c1 (stereo partly drawn) , please. 2.5

###

Property: zone of inhibition at 100 µg/mL; scope: individual compounds
test system: Bacillus subtilis; experiment: Antibacterial activity against Bacillus subtilis assessed as zone of inhibition at 100 ug/ml by agar plate method; type: functional; conditions: read-out: IZ
Return type: number; implicit unit mm.

Tell me the measured zone of inhibition at 100 µg/mL of COC(=O)[C@@H]1CCCN1C(=O)C1=C(C)NC(=S)NC1c1cccc(OC/C=C\COc2cccc(C3NC(=S)NC(C)=C3C(=O)N3CCC[C@H]3C(=O)OC)c2)c1 (stereo partly drawn) , please. 12

Tell me the measured zone of inhibition at 100 µg/mL of O=C(O)c1cn(C2CC2)c2cc(N3CCNCC3)c(F)cc2c1=O , please. 33

More entries:
Tell me the measured zone of inhibition at 100 µg/mL of CCOC(=O)C1=C(C)NC(=S)NC1c1ccc(OC/C=C\COc2ccc(C3NC(=S)NC(C)=C3C(=O)OCC)cc2OC)c(OC)c1 (stereo not drawn) , please. 13

Tell me the measured zone of inhibition at 100 µg/mL of CCOC(=O)C1=C(C)NC(=S)NC1c1cccc(OC/C=C/COc2cccc(C3NC(=S)NC(C)=C3C(=O)OCC)c2)c1 (stereo not drawn) , please. 12

###

tested on: Pseudomonas aeruginosa; assay: Antibacterial activity against Pseudomonas aeruginosa assessed as zone of inhibition at 100 ug/ml by agar plate method; type: functional; conditions: read-out: IZ
measuredParameter: zone of inhibition at 100 µg/mL (mm)
Return type: number; implicit unit mm.

Before answering, review these 2 worked examples.
Tell me the measured zone of inhibition at 100 µg/mL of O=C(O)c1cn(C2CC2)c2cc(N3CCNCC3)c(F)cc2c1=O [CIPROFLOXACIN] , please. 38

Tell me the measured zone of inhibition at 100 µg/mL of CCOC(=O)C1=C(C)NC(=S)NC1c1ccc(OC/C=C\COc2ccc(C3NC(=S)NC(C)=C3C(=O)OCC)cc2OC)c(OC)c1 (stereo not drawn) , please. 15

More entries:
Tell me the measured zone of inhibition at 100 µg/mL of CCOC(=O)C1=C(C)NC(=S)NC1c1cccc(OC/C=C\COc2cccc(C3NC(=S)NC(C)=C3C(=O)OCC)c2)c1 (stereo not drawn) , please. 18

Tell me the measured zone of inhibition at 100 µg/mL of COC(=O)[C@@H]1CCCN1C(=O)C1=C(C)NC(=S)NC1c1cccc(OC/C=C\COc2cccc(C3NC(=S)NC(C)=C3C(=O)N3CCC[C@H]3C(=O)OC)c2)c1 (stereo partly drawn) , please. 12

Tell me the measured zone of inhibition at 100 µg/mL of CCOC(=O)C1=C(C)NC(=S)NC1c1ccc(OCCCCCOc2ccc(C3NC(=S)NC(C)=C3C(=O)OCC)cc2OC)c(OC)c1 (stereo not drawn) , please. 20

Tell me the measured zone of inhibition at 100 µg/mL of CCOC(=O)C1=C(C)NC(=S)NC1c1cccc(OCCCOc2cccc(C3NC(=S)NC(C)=C3C(=O)OCC)c2)c1 (stereo not drawn) , please. 12

Tell me the measured zone of inhibition at 100 µg/mL of CCOC(=O)C1=C(C)NC(=S)NC1c1ccc(OCCCCOc2ccc(C3NC(=S)NC(C)=C3C(=O)OCC)cc2OC)c(OC)c1 (stereo not drawn) , please. 13

Tell me the measured zone of inhibition at 100 µg/mL of CCOC(=O)C1=C(C)NC(=S)NC1c1cccc(OC/C=C/COc2cccc(C3NC(=S)NC(C)=C3C(=O)OCC)c2)c1 (stereo not drawn) , please. 15
